Assignment: determine reported pKd for the given binders.
# Experimental System: T1, human CD33 extracellular domain (human, UniProt P20138 18-259)
# T1 construct: soluble monomeric ECD; also called human CD33 ECD; hCD33
# Method Summary: SPR, Fab captured, 37C;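 note: Anti-CD33 Fabs captured on anti-Fab chip, soluble monomeric CD33 or its domains flowed over at several concentrations, double-referenced data fitted 1:1, Kd taken as koff/kon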
Numbers only, as −log10 of the molar value.

Solved cases (4 shown):
>>> value_observed("ADI-11830 Fab (Fab, V domains shown, Fab fragment; also called Ab9) VH: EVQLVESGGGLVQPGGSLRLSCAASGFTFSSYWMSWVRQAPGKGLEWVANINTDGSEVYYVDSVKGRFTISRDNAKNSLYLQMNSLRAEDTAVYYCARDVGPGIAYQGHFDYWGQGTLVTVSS VL: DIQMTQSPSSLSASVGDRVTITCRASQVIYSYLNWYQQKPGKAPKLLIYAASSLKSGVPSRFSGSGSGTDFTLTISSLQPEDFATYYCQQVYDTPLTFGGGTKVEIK")
8.56
>>> value_observed("ADI-10177 Fab (Fab, V domains shown, Fab fragment; also called Ab2) VH: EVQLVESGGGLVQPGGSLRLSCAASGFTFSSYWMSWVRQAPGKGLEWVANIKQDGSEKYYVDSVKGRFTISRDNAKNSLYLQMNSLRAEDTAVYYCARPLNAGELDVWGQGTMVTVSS VL: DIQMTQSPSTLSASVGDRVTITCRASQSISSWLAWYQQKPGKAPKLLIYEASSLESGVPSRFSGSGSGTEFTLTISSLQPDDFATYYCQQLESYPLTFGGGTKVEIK")
7.94
>>> value_observed("ADI-10159 Fab (Fab, V domains shown, Fab fragment; also called Ab1; G59) VH: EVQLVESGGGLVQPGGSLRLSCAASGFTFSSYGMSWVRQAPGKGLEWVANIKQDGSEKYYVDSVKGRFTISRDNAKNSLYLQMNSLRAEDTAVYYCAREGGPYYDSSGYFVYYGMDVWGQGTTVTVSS VL: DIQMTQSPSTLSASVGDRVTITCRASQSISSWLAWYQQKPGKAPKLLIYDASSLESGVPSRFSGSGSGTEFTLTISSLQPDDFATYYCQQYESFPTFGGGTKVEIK")
8.34
>>> value_observed("ADI-11839 Fab (Fab, V domains shown, Fab fragment; also called Ab28) VH: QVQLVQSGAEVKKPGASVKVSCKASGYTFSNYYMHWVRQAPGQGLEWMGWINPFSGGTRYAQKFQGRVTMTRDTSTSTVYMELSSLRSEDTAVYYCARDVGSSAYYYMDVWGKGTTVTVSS VL: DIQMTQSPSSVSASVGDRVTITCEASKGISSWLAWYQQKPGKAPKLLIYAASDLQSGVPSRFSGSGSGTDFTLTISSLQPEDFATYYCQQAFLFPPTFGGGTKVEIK")
7.73

Turning now to a further record.
-- ask I am curious: what pKd value has been reported for ADI-10163 Fab (Fab, V domains shown, Fab fragment; also called Ab17) VH: QVQLQESGPGLVKPSQTLSLTCTVSGGSISSGGYYWSWIRQHPGKGLEWIGSIYYSGSTYYNPSLKSRVTISVDTSKNQFSLKLSSVTAADTAVYYCARDRLDYSYNYGMDVWGQGTTVTVSS VL: DIQMTQSPSSLSASVGDRVTITCRASQSISSYLNWYQQKPGKAPKLLIYGASSLQSGVPSRFSGSGSGTDFTLTISSLQPEDFATYYCQQVYSAPFTFGGGTKVEIK ?
-- reply 7.27

From: patent US20220380459A1
